Please go through the items and note down their growth inhibition.
# assay-explanation: NCI Yeast Anticancer Drug Screen. Data for the cln2 rad14 strain (AID 165);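 note: 0% = growth equal to vehicle treated cultures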
# condition-set: S. cerevisiae cln2 rad14 strain, at 50.0 µM, stronger effect = higher value
Compounds without any hit were thinned out: in the full panel of roughly 79,000, 15% have a hit.
Answers are plain numbers, in %.

Fill in growth inhibition for each of the 5 molecules listed.
1. COc1cccc2c1C(=O)c1c(O)c(COC3CC(N)C(O)C(C)O3)cc(O)c1C2=O (stereo not given)
2. O=C1SCCN1/N=C/c1ccc([N+](=O)[O-])o1
3. CCC(c1ccc(O)c(C2CCCCC2)c1)C(CC)c1ccc(OC(=O)c2ccccc2)c(C2CCCCC2)c1 (stereo not given)
4. Clc1ccc(-c2cc(-c3cc(-c4ccc(Cl)c(Cl)c4)n[nH]3)[nH]n2)cc1Cl
5. O=C1c2cc3c(cc2CC1Br)CCC3 (stereo not given)

50.6
50.7
26.8
29.7
90.2
